FYI, the data here is from ChEMBL document CHEMBL1764964.

- tested-system: G-protein coupled bile acid receptor 1 (Homo sapiens)
- Sequence (Q8TDU6 whole entry): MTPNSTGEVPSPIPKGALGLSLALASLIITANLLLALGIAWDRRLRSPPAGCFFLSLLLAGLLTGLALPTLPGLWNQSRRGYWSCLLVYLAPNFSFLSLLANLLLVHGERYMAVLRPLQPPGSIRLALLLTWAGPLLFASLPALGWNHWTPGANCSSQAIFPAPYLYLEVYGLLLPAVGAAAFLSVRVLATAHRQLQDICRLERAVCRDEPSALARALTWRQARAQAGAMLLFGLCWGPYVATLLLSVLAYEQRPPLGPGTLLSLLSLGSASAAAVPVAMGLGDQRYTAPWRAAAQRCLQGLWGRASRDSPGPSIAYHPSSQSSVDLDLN
- method-summary: Agonist activity at human TGR5 receptor expressed in NCI-H716 cells assessed as intracellular cAMP level by TR-FRET assay
experimental-endpoint: EC50 (µM)
The reply should contain only the number, in µM.

Request: If you can, please state the reported EC50 value of CC[C@H]1[C@@H](O)[C@@H]2[C@H](CC[C@]3(C)[C@@H]([C@H](C)CCNC(=O)OC/C=C/c4ccccc4)CC[C@@H]23)[C@@]2(C)CC[C@@H](O)C[C@@H]12 .
Response: 55
